Provenance of the data: patent US20220296726A1

Molecular target: T1, Human TREM2 extracellular domain (ECD), residues 19-131, C-terminally biotinylated, deglycosylated (human, UniProt Q9NZC2 19-131, C-terminally biotinylated; deglycosylated)
T1 construct: range 19-131; loaded on Superstreptavidin biosensors; also called triggering receptor expressed on myeloid cells 2; Human BLI (deglycosylated)
T1 sequence (looked up): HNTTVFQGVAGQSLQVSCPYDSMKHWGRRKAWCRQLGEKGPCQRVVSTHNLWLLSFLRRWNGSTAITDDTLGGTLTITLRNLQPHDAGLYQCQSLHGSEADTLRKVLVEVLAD
Assay: BLI steady state, deglycosylated human TREM2 ECD on sensor
*1 amine or outer side, *2 acyl side, *3 side chain or, on linkers, in order; H or OH if unused. Bridges are numbered along the chain shown (N, C = ends). Where no end group is shown, it is not given here. [ ]: non-standard residue; d: D form. TATA = O=C(CC[*:1])N1CN(C(=O)CC[*:2])CN(C(=O)CC[*:3])C1
readout.name: Kd (nM)
Dear colleague, please return just the value in nM, with no unit written.

// worked examples, Kd included
Exam item: Which measured Kd value corresponds to Ac-C[dA]EYCFWPFYHC (linker 1-5-12 via TATA) [BCY20086] ?
Marked response: 18000

Exam item: What does the record list as Kd for Ac-CSEYCFWPFYEC (linker 1-5-12 via TATA) [BCY20574] ?
Marked response: 1740

Exam item: Give the measured Kd of Ac-CS[dA]YCFWPFYHC (linker 1-5-12 via TATA) [BCY20087] .
Marked response: 18000

Exam item: Item Ac-CSYYCFWPFQYC (linker 1-5-12 via TATA) [BCY20221] has what recorded Kd?
Marked response: 690

Exam item: Would you kindly share the measured Kd for ACTNYCFWPFYLCA (linker 2-6-13 via TATA) [BCY19782] ?
Marked response: 1400

More entries:
Exam item: Any idea what Kd was measured for CSEYCFXPFYHC (N-terminal acetyl (Ac); CiSEYCiiF[6ClTrp]PFYHCiii; Ci, Cii, Ciii on TATA scaffold) [BCY19671] ?
Marked response: 1000
